# assayed.system: Cyclin-dependent kinase 2 (Homo sapiens);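 also: mean inhibition measured against the CDK2/cyclin E complex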
# settings: at 1 µM
Each entry below carries its recorded inhibition.
experimental.endpoint: inhibition (%)

| compound | numeric.value |
| --- | --- |
| COC(=O)Nc1nc2cc(Oc3ccc(NC(=O)Nc4ccccc4)cc3)ccc2[nH]1 | 3.15 |
| CC1=C(C(=O)Nc2ccc3[nH]nc(C)c3c2)C(c2ccc(C(F)(F)F)cc2)CC(=O)N1 (stereo unspecified) | 6.67 |
| NS(=O)(=O)c1ccc(N/N=C2\C(=O)Nc3ccc(C(=O)NCc4ccncc4)cc32)cc1 | 86.2 |
| CN1CCC(n2cnc(-c3ccc(F)cc3)c2-c2ccnc(NCCO)n2)CC1 | 4.55 |
| CC(C)c1ccc(-c2cc(-c3c[nH]nc3-c3ccccn3)ccn2)cc1 | 1.4 |
| COc1c(C(N)=O)cc(-c2ccc(Cl)cc2)cc1-c1ccc(S(N)(=O)=O)cc1 | 3.13 |

# credit: ChEMBL document CHEMBL1961873
